Record form. Attribute: Cmax. Fill in for each entry.
assay.text: Single dose oral pharmacokinetic study
Assay type: in vivo
condition.notes: mouse; Mice oral PK @30 mg/kg; plasma; vehicle 10% Solutol+20% PEG; read-out: Cmax
Description: The test item was administered through oral route to animals (rat/mice) at 30 mg/kg dose in a suitable vehicle (10% Solutol+20% PEG) at 10 ml/kg dose volume. […] Standard solutions of the test compound 1 mg/mL solutions were prepared in DMSO and further dilutions were made in methanol. […] After reconstitution with solvent (50% Acetonitrile in Buffer) samples were analyzed by LCMSMS to get the concentrations to calculate PK Parameters.
// note: answer is a bare numeric in ng/mL

May I ask what Cmax has been recorded for `CC(C)C1=C2[C@H]3CC[C@@H]4[C@@]5(C)CC[C@H](OC(=O)[C@H]6C[C@@H](C(=O)O)C6(C)C)C(C)(C)[C@@H]5CC[C@@]4(C)[C@]3(C)CC[C@@]2(NC(=O)C(C)(C)NC(=O)c2ccc(F)cc2)CC1=O` ?
23600

Similarly, `CC(C)C1=C2[C@H]3CC[C@@H]4[C@@]5(C)CC[C@H](OC(=O)[C@H]6C[C@@H](C(=O)O)C6(C)C)C(C)(C)[C@@H]5CC[C@@]4(C)[C@]3(C)CC[C@@]2(NC(=O)C(C)(C)NC(=O)c2ccc(S(C)(=O)=O)cc2)CC1=O` ?
32300

Similarly, `CC(C)C1=C2[C@H]3CC[C@@H]4[C@@]5(C)CC[C@H](OC(=O)[C@@H]6C[C@H](C(=O)O)C6(C)C)C(C)(C)[C@@H]5CC[C@@]4(C)[C@]3(C)CC[C@@]2(NC(=O)C(C)(C)NC(=O)c2ccc(Cl)cc2)CC1=O` ?
16000

Similarly, `CC(C)C1=C2[C@H]3CC[C@@H]4[C@@]5(C)CC[C@H](OC(=O)[C@H]6C[C@@H](C(=O)O)C6(C)C)C(C)(C)[C@@H]5CC[C@@]4(C)[C@]3(C)CC[C@@]2(NC(=O)C(C)(C)NCc2ccc(Cl)cc2)CC1=O` ?
20000

---

assay.text: Cyto-toxicity (MTT assay)
Type: cell-based
Record form. Attribute: viability at 4 days, 0.01 µM. Fill in for each entry.
// note: answer is a bare numeric in %

May I ask what viability at 4 days, 0.01 µM has been recorded for `Cc1nc(C)c(C(=O)NC(C)(C)C(=O)N[C@@]23CC[C@]4(C)[C@H](CC[C@@H]5[C@@]6(C)CC[C@H](OC(=O)[C@H]7C[C@@H](C(=O)O)C7(C)C)C(C)(C)[C@@H]6CC[C@]54C)C2=C(C(C)C)C(=O)C3)s1` ?
44

Similarly, `CC(C)C1=C2[C@H]3CC[C@@H]4[C@@]5(C)CC[C@H](OC(=O)[C@H]6C[C@@H](C(=O)O)C6(C)C)C(C)(C)[C@@H]5CC[C@@]4(C)[C@]3(C)CC[C@@]2(NC(=O)C(C)(C)NS(C)(=O)=O)CC1=O` ?
51

Similarly, `Cc1noc(C)c1C(=O)NC(C)(C)C(=O)N[C@@]12CC[C@]3(C)[C@H](CC[C@@H]4[C@@]5(C)CC[C@H](OC(=O)[C@H]6C[C@@H](C(=O)O)C6(C)C)C(C)(C)[C@@H]5CC[C@]43C)C1=C(C(C)C)C(=O)C2` ?
40

Similarly, `Cc1ccc(C(=O)NC(C)(C)C(=O)N[C@@]23CC[C@]4(C)[C@H](CC[C@@H]5[C@@]6(C)CC[C@H](OC(=O)[C@H]7C[C@@H](C(=O)O)C7(C)C)C(C)(C)[C@@H]6CC[C@]54C)C2=C(C(C)C)C(=O)C3)cc1` ?
34

---

assay.text: Single dose oral pharmacokinetic study
Format: in vivo
condition.notes: mouse; Mice oral PK @30 mg/kg; plasma; vehicle 10% Solutol+20% PEG; read-out: AUC0-t
Record form. Attribute: AUC(0-t). Fill in for each entry.
Don't forget the unit after the number, please.

May I ask what AUC(0-t) has been recorded for `Cc1ccc(C(=O)NC2(C(=O)N[C@@]34CC[C@]5(C)[C@H](CC[C@@H]6[C@@]7(C)CC[C@H](OC(=O)[C@H]8C[C@@H](C(=O)O)C8(C)C)C(C)(C)[C@@H]7CC[C@]65C)C3=C(C(C)C)C(=O)C4)CCCC2)cn1` ?
538 µg·h/mL

Similarly, `CC(C)C1=C2[C@H]3CC[C@@H]4[C@@]5(C)CC[C@H](OC(=O)[C@H]6C[C@@H](C(=O)O)C6(C)C)C(C)(C)[C@@H]5CC[C@@]4(C)[C@]3(C)CC[C@@]2(NC(=O)C(C)(C)NC(=O)c2ccc(F)cc2)CC1=O` ?
490 µg·h/mL

---

assay.text: Cyto-toxicity (MTT assay)
Format: cell-based
Label Criterion met when viability at 4 days, 0.1 µM < 5%; otherwise Criterion not met.

Strictly below 5%: is that where viability at 4 days, 0.1 µM of `Cc1ccc(C(=O)NC(C)(C)C(=O)N[C@@]23CC[C@]4(C)[C@H](CC[C@@H]5[C@@]6(C)CC[C@H](OC(=O)[C@H]7C[C@@H](C(=O)O)C7(C)C)C(C)(C)[C@@H]6CC[C@]54C)C2=C(C(C)C)C(=O)C3)cn1` sits?
Criterion not met

Similarly, `CC(C)C1=C2[C@H]3CC[C@@H]4[C@@]5(C)CC[C@H](OC(=O)[C@H]6C[C@@H](C(=O)O)C6(C)C)C(C)(C)[C@@H]5CC[C@@]4(C)[C@]3(C)CC[C@@]2(NC(=O)C(C)(C)NCc2ccccn2)CC1=O` ?
Criterion not met

Similarly, `CC(C)C1=C2[C@H]3CC[C@@H]4[C@@]5(C)CC[C@H](OC(=O)[C@H]6C[C@@H](C(=O)O)C6(C)C)C(C)(C)[C@@H]5CC[C@@]4(C)[C@]3(C)CC[C@@]2(NC(=O)C2(NC(=O)c3ccc(F)cc3)CC2)CC1=O` ?
Criterion met

Similarly, `Cc1ccc(C(=O)NC2(C(=O)N[C@@]34CC[C@]5(C)[C@H](CC[C@@H]6[C@@]7(C)CC[C@H](OC(=O)[C@H]8C[C@@H](C(=O)O)C8(C)C)C(C)(C)[C@@H]7CC[C@]65C)C3=C(C(C)C)C(=O)C4)CC2)cc1` ?
Criterion met

Similarly, `CC(C)C1=C2[C@H]3CC[C@@H]4[C@@]5(C)CC[C@H](OC(=O)[C@H]6C[C@@H](C(=O)O)C6(C)C)C(C)(C)[C@@H]5CC[C@@]4(C)[C@]3(C)CC[C@@]2(NC(=O)C(C)(C)NCC2(c3ccc(Cl)cc3)CC2)CC1=O` ?
Criterion not met

Similarly, `CC(C)C1=C2[C@H]3CC[C@@H]4[C@@]5(C)CC[C@H](OC(=O)[C@H]6C[C@@H](C(=O)O)C6(C)C)C(C)(C)[C@@H]5CC[C@@]4(C)[C@]3(C)CC[C@@]2(NC(=O)C2(NC(=O)c3ccc(Cl)cc3)CC2)CC1=O` ?
Criterion met

Similarly, `CC(C)C1=C2[C@H]3CC[C@@H]4[C@@]5(C)CC[C@H](OC(=O)[C@@H]6C[C@H](C(=O)O)C6(C)C)C(C)(C)[C@@H]5CC[C@@]4(C)[C@]3(C)CC[C@@]2(NC(=O)C(C)(C)NC(=O)c2ccc(Cl)cc2)CC1=O` ?
Criterion not met

Similarly, `Cc1ccc(C(=O)NC2(C(=O)N[C@@]34CC[C@]5(C)[C@H](CC[C@@H]6[C@@]7(C)CC[C@H](OC(=O)[C@H]8C[C@@H](C(=O)O)C8(C)C)C(C)(C)[C@@H]7CC[C@]65C)C3=C(C(C)C)C(=O)C4)CCCCC2)cn1` ?
Criterion not met

Similarly, `CC(C)C1=C2[C@H]3CC[C@@H]4[C@@]5(C)CC[C@H](OC(=O)[C@H]6C[C@@H](C(=O)O)C6(C)C)C(C)(C)[C@@H]5CC[C@@]4(C)[C@]3(C)CC[C@@]2(NC(=O)C2(NC(=O)c3ccc(Cl)cc3)CCCCC2)CC1=O` ?
Criterion not met

Similarly, `CC(C)C1=C2[C@H]3CC[C@@H]4[C@@]5(C)CC[C@H](OC(=O)[C@H]6C[C@@H](C(=O)O)C6(C)C)C(C)(C)[C@@H]5CC[C@@]4(C)[C@]3(C)CC[C@@]2(NC(=O)C(C)(C)NC(=O)c2ccc3[nH]c(-c4cnccn4)nc3c2)CC1=O` ?
Criterion not met

Similarly, `CC(C)C1=C2[C@H]3CC[C@@H]4[C@@]5(C)CC[C@H](OC(=O)[C@H]6C[C@@H](C(=O)O)C6(C)C)C(C)(C)[C@@H]5CC[C@@]4(C)[C@]3(C)CC[C@@]2(NC(=O)C(C)(C)NC(=O)c2nccn2C)CC1=O` ?
Criterion not met

Similarly, `Cc1occc1C(=O)NC(C)(C)C(=O)N[C@@]12CC[C@]3(C)[C@H](CC[C@@H]4[C@@]5(C)CC[C@H](OC(=O)[C@H]6C[C@@H](C(=O)O)C6(C)C)C(C)(C)[C@@H]5CC[C@]43C)C1=C(C(C)C)C(=O)C2` ?
Criterion met

Similarly, `CC(C)C1=C2[C@H]3CC[C@@H]4[C@@]5(C)CC[C@H](OC(=O)[C@H]6C[C@@H](C(=O)O)C6(C)C)C(C)(C)[C@@H]5CC[C@@]4(C)[C@]3(C)CC[C@@]2(NC(=O)C(C)(C)NC(=O)c2ccc3ccccc3n2)CC1=O` ?
Criterion not met

Similarly, `CCOC(=O)NC(C)(C)C(=O)N[C@@]12CC[C@]3(C)[C@H](CC[C@@H]4[C@@]5(C)CC[C@H](OC(=O)[C@H]6C[C@@H](C(=O)O)C6(C)C)C(C)(C)[C@@H]5CC[C@]43C)C1=C(C(C)C)C(=O)C2` ?
Criterion met

Every entry's value here was drawn from patent US20170008921A1.
